# credit: ChEMBL document CHEMBL1138966

Measured pIC50, listed per entry.
system-name: Human immunodeficiency virus type 1 integrase (Human immunodeficiency virus 1, UniProt Q7ZJM1)
Sequence (Q7ZJM1 whole entry): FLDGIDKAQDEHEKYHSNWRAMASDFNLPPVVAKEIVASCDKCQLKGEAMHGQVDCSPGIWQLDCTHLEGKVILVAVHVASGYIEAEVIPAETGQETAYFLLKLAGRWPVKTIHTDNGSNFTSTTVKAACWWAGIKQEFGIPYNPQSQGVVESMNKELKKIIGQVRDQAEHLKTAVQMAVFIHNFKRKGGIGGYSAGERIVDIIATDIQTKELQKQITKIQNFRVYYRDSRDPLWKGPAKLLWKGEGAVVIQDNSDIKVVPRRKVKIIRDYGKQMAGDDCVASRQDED
When answering, recall that pIC50 equals minus log10 of the concentration in mol/L, and write that number alone.

Use these answered entries as a reference point.
[[record]]
input_smiles = "COc1c2c(c(O)c3ncccc13)C(=O)N(Cc1ccc(F)cc1)C2=O"
obs_value = 7.10

[[record]]
input_smiles = "CCOc1ccc(-c2c3c(c(O)c4ncccc24)C(=O)N(Cc2ccc(F)cc2)C3)cc1"
obs_value = 5.92

[[record]]
input_smiles = "CCOC(=O)c1ccccc1-c1c2c(c(O)c3ncccc13)C(=O)N(Cc1ccc(F)cc1)C2"
obs_value = 6.46

[[record]]
input_smiles = "O=C(NCc1ccccn1)c1c2c(c(O)c3ncccc13)C(=O)N(Cc1ccc(F)cc1)C2"
obs_value = 6.72


Here's the next entry for you.
**Q:** Can you look up the measured pIC50 of CCOC(=O)c1cccc(-c2c3c(c(O)c4ncccc24)C(=O)N(Cc2ccc(F)cc2)C3)c1 for me?
**A:** 5.68

###

Items are presented alongside their recorded EC50.
System: Human immunodeficiency virus 1
test-details: Antiviral activity against HIV1 3B assessed as protein binding effect in MT2 cells
Assay type: functional, organism-based
condition-notes: Human immunodeficiency virus 1, 3B
Please state the figure in nM; there is no need to write the unit.

[[record]]
input_smiles = "O=C(NCc1ccccn1)c1c2c(c(O)c3ncccc13)C(=O)N(Cc1ccc(F)cc1)C2"
obs_value = 94


**Q:** Entry O=C1c2c(c(C(=O)N3CCOCC3)c3cccnc3c2O)CN1Cc1ccc(F)cc1 : reported EC50 = ?
**A:** 54

**Q:** Same again, this time with O=C(NCc1ccc(F)cc1)c1nc(N2CCCCS2(=O)=O)c2cccnc2c1O
**A:** 88

###

UniProt:Q7ZJM1 data, read-out IC50
Give just the number in µM; leave the unit off.

[[record]]
input_smiles = "CN(C)C(=O)Oc1c2c(c(O)c3ncccc13)C(=O)N(Cc1ccc(F)cc1)C2=O"
system_name = "UniProt:Q7ZJM1"
result_unit = "µM"
obs_value = 2.4

[[record]]
input_smiles = "O=C1c2c(cc3cccnc3c2O)CN1Cc1ccc(F)cc1"
system_name = "UniProt:Q7ZJM1"
result_unit = "µM"
obs_value = 0.07

[[record]]
input_smiles = "CN(C)C(=O)Oc1c2c(c(O)c3ncccc13)C(=O)N(Cc1ccc(F)cc1)C2"
system_name = "UniProt:Q7ZJM1"
result_unit = "µM"
obs_value = 0.76


**Q:** Could you share which IC50 value was measured for COc1c2c(c(O)c3ncccc13)C(=O)N(Cc1ccc(F)cc1)C2 ?
**A:** 0.05

**Q:** Would you mind doing O=C(NCc1ccc(F)cc1)c1nc(N2CCCCS2(=O)=O)c2cccnc2c1O as well?
**A:** 0.05

###

system-name: Human immunodeficiency virus type 1 integrase (Human immunodeficiency virus 1)
Each entry below lists one item and its recorded IC50 value.

Please review the following examples before continuing.
[[record]]
input_smiles = "O=C(NCc1ccc(F)cc1)c1ccc2cccnc2c1O"
measured_attribute = "IC50"
obs_value = "2000 nM"

[[record]]
input_smiles = "O=C1c2c(c(-c3c(F)cccc3F)c3cccnc3c2O)CN1Cc1ccc(F)cc1"
measured_attribute = "IC50"
obs_value = "335 nM"


Query molecule follows.
**Q:** Field request: IC50 | item: O=C1c2c(c(C(=O)N3CCOCC3)c3cccnc3c2O)CN1Cc1ccc(F)cc1
**A:** 36 nM
